The measured values listed here are drawn from PubChem BioAssay.

- System: glycogen synthase kinase-3 (GSK3A per assay name; protocol says GSK3B)
- Protocol description: GSK3 binders on small-molecule microarrays, primary screen, biochemical, small-molecule microarray, 635 nm fluorescence, GSK3A (AID 1103); further: the record names both GSK3A and GSK3B
- Condition summary: small-molecule microarray binding, fluorescence 635 nm; higher = more signal
Property: composite z-score
Lab note: record just the number, no unit beside it.

CC(=O)O[C@H]1C2=C(C(=O)[C@@H]3O[C@@H]31)[C@H]1C(C)O[C@@H]2[C@@]23C(=O)[C@@H]4O[C@@H]4[C@@H](O)C2=CO[C@H](C)[C@@H]13 (stereo partly drawn)
-0.0186
C#CCCCON=C1C[C@@H](O)[C@@H](O)[C@@H]2[C@@H]3C(=O)N(Cc4ccccc4)C(=O)[C@@H]3CC[C@H]12
0.147
COC(=O)C1=CCC(c2cccc(Cl)c2)O1 (stereo not drawn)
-0.842

Reported composite z-score of CCCCc1nc2c(c3c1C[C@H](C)OC3)CN(CCC(C)C)CC2 : 1.25

// recorded composite z-score for CC(C)(C)OC(=O)CC[C@]1(C(N)=O)COC(c2ccc(OCCCO)cc2)=N1 : 0.977

CN(C)c1ccc(C(O)C2C=CC3C(=O)N(c4ccccc4)C(=O)C3N2Nc2ccccc2F)cc1 (stereo not drawn) yielded composite z-score of 1.23

Record CC[C@@H](c1ccccc1)n1c(=O)n2n(c1=O)[C@H]1[C@H](O)[C@@H]3O[C@@H]3C(=NOCC(C)C)[C@H]1CC2 . Reported composite z-score: 0.0344

Form: compound = CN(C)CCCNC(=O)[C@@H]1c2ccccc2C(=O)N(Cc2cc(F)cc(C(F)(F)F)c2)[C@H]1c1ccc(CO)cc1 ; composite z-score = 0.922

====

- Protocol description: E. coli DRC41 culture turbidity changes, primary screen, E. coli filamentation inducer project, strain DRC41, OD650, 48 h (AID 1152);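 further: E. coli MC1000 strain DRC41 lacking acrAB efflux pump and sulA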
- Condition summary: E. coli DRC41 (acrAB sulA), higher = more signal, called active from +8 up or from −8 down
Property: z-score
Just the number, please.

Some compounds with known z-score results, for comparison:
CCOC(=O)[C@H](CC(C)C)NC(=O)CCC1CC(OC(=O)NCCc2ccc(F)cc2)CC2(CCCC(COC(=O)NCc3ccccc3)O2)O1 (stereo partly drawn)
-1.06
COc1cccc([C@H]2Oc3ccc(OC)cc3C(=NOC(C)CN3CCCc4nc(C)c(C)cc43)[C@@H]2O)c1 (stereo partly drawn)
-0.304
CC(C)=CCCC(C)=CCON=C1[C@H]2CCn3c(=O)n(Cc4cc5c(cc4Cl)OCO5)c(=O)n3[C@H]2[C@H](O)[C@@H]2O[C@H]12
-0.939

Read the next record carefully.
Looking up COC(=O)c1c(CC[C@@H](CO)NC(=O)N[C@H](Cc2ccccc2)Cn2cc(-c3ccccc3N)nn2)oc(C(C)=O)c1C(=O)OC , I see its z-score listed as 0.144

====

- Tested target: NADPH oxidase 5 (Homo sapiens) (UniProt Q96PH1)
- Sequence (Q96PH1 whole entry, looked up): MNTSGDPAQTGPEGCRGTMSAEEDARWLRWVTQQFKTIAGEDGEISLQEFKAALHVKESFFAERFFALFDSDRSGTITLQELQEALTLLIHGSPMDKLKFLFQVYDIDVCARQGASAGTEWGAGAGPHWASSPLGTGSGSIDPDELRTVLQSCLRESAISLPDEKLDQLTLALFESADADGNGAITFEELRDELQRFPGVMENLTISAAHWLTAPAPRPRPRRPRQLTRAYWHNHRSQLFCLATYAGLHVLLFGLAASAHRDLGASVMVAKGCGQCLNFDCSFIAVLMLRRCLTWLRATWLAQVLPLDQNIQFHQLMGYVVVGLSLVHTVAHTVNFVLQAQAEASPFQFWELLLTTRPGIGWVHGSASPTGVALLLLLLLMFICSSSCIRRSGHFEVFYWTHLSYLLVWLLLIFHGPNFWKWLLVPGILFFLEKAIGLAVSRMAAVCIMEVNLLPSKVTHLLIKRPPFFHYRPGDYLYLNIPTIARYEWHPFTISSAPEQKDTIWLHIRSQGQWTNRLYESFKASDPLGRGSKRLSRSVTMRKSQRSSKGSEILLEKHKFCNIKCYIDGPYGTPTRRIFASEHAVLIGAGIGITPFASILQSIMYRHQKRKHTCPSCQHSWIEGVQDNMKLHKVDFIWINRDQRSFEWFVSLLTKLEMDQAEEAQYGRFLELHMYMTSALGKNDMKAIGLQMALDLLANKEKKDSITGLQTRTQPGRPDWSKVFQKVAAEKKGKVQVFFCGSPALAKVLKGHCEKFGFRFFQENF
- Protocol description: NOX5-dependent H2O2 signal modulators, primary screen, NOX inhibitor project, cell-based, HEK293-NOX5, Amplex Red fluorescence (AID 1161)
- Condition summary: HEK293-NOX5, ionomycin, 45 min, higher = more signal
Measured z-score, listed per entry for reference.

CN1C(=O)C2C=CC(C(O)c3ccc(I)cc3)N(NC(=O)OC(C)(C)C)C2C1=O (stereo not drawn)
-0.411
CCN(CC)c1ccc(N2CC=CC34O[C@@H]5/C=C\CCC(C)OC(=O)C5[C@H]3C(=O)N(CCCO)[C@@H]4C2=O)cc1 (stereo partly drawn)
0.975
CCOC(=O)[C@H](Cc1ccccc1)NC(=O)CCC1CC(OC(=O)NCc2ccc3c(c2)OCO3)CC2(CCCC(COC(=O)NCc3ccccc3)O2)O1 (stereo partly drawn)
0.562
COc1cccc([C@@H]2Oc3ccc(Br)cc3C(=O)[C@H]2O)c1
-0.879

Kindly note the recorded z-score for C[C@@H](c1ccccc1)N1C(=O)[C@H]2[C@H]3[C@H](O)[C@H](O)CC(=NNC(=O)OCc4ccccc4)[C@H]3CC[C@H]2C1=O , which is 0.412

z-score for COC(=O)CC=C[C@@H](C)[C@H](OC)c1ccccc1Br is -0.297

Short answer for COc1ccc(O[C@H]2C=C[C@@H](c3ccccc3)O[C@@H]2COC(=O)N2CCCCC2)cc1 : z-score was -1.71

Entry C=COC[C@H]1CN2[C@@H](CC[C@@H](C)[C@@H]2c2ccc(Br)cc2)C(=O)O1 ; z-score = 0.574
